Method Summary: yeast display, Sf9 membrane polyspecificity reagent, FACS + sequencing; frameworks hold sequencing errors

{"columns": ["Entry Sequence", "polyreactivity (PSR sort gate)"],
 "data": [
  ["QVQLVESGGGLVQAGGSLRLSCAASGRTFSGYVMGWYRQAPGKERELVATINGSGASTYYADSVKGRFTISRDNAKNTVYLQTNSLKPEDTAVYYCAAKRYRPKYEYYYWGQGTQVTVSS", "high polyreactivity"],
  ["QVQLVESGGGLVQAGGSLRLSCAASGYTFGQYAMGWYRQAPGKEREMVAAISSGGGSTYYADSVKGRFTISRDNAKTTVYLQMNSLKPEDTAVYYCAAQYLYPTYRYGYWGQGTQVTVSS", "high polyreactivity"]
]}

----------
Method Summary: yeast display, Sf9 membrane polyspecificity reagent, FACS + sequencing; frameworks hold sequencing errors
Measured Quantity: polyreactivity (PSR sort gate)

Field: example entries. Status: answers known.
{"columns": ["Entry Sequence", "polyreactivity (PSR sort gate)"],
 "data": [
  ["QVQLVESCGGLVQAGGSLRLSCAASGSTFWKYVMGWYRQAPGKDRELVAAISGRGGSTYYADSVKGRFTISRDNAKNTVYLQMNSLKPEDTAVYYCAKVHTRRKPYNSWGQGTQVTVSS", "high polyreactivity"],
  ["HVQLEESGGGLVQAGGSLRLSCAASGFTFNRYAMGWYRQAPGKERELVAAISSGGRTYYADSVKGRFTISRDNAKNTVYLQMNRLKPDDTAVYYCAADWSLYSHEFDYWGQGTQVTVSS", "high polyreactivity"],
  ["QVQLVESGGGLVQAGGSLRLSCAASGNTFAGYAMGWYRQAPGKEMEWVAAISTRGGITYYADSVKGRFTISRDNAKNTVYLQMNCLKPEDTAVYYCAAEFYYPWTYCSCDGRRVYYWGQGTQVTVSS", "high polyreactivity"],
  ["QVQLVESGGGLVQAGGSLRLSCAASGFIFPWYAMGWYRQAPGKERELVAAISSSGGRTYYADSVKGRFTISRDNAKNTVYLQMNSLKPEDTAVYYCNVANGLSQVYRYNYWGQGTQVTVSS", "high polyreactivity"],
  ["QVQLVESRGGLVQAGGSLRLSCAASGITFDVYDMGWYRQAPGKERELVASINSGGGITYYADSVKGRFTISRDNAKNTVYLQMNSLKPEDTAVFYCADDTWGSSWYDLFRETSDYWGQVTQVTVSS", "low polyreactivity"],
  ["QVQLVESGGGLVQAGGSLRLRCAASGITLLNYAMGWYRQAPWKERELVAAISWSGGRTYYADSVKGRFTMSRDNAKNTDYLHMNSLNPQDTAVYYCAAARGVNSYGYWGQGTQVTVSS", "high polyreactivity"],
  ["QVQLVESGGGLVQAGGSLRLSCAASGYTFGYNAMGWYRQAPGKERELVAAISWNAGSTYYADSVKGRFTISRDNAKNTVYLQMNSLKPEDTAVYYCATEGTYIYNYWGQGTQVTVSS", "low polyreactivity"],
  ["QVQLVESGGGLVQAGGSLPLSCAASGSTFGYNAMGWYRQAPGKERELVAAITWTGASTYYADSVKGRFTISRDNAKNTVYLQMNSLKPEDTAVYYCNARFGKRGYSPPYDYWGQGTQVTVSS", "low polyreactivity"],
  ["QVQLVESGGGLVQAGGSLRLSCAASGSTIPRNALGWYRQATGKERELVPAISSGGSTYYADSVKWRFTISRDNAKNTVYLQMNRLKPEDTAVYYCAARLYWPIIVVDLYGYDYWGQGTQVTVSS", "low polyreactivity"],
  ["QVQLVESGGGLVQAGGRLRLSCAASGRIFGVNAMGWYRQAPGKERELVAVISSGGSTYYADSVKGRFTISRDNAKNTVYLQMNSLKPEDTAVYYCNAVVGRWFPYNLSDYWGQGTQVTVSS", "low polyreactivity"]
]}

Next sequence, polyreactivity (PSR sort gate) to be filled in.
[in] # query: polyreactivity (PSR sort gate) of entry `QVQLVESGGGLVQAGGSLRLSCAASGRTFSYYTMGWYRQAPGKERELVAAITSSGGSTYYADSVKGRFTISRDNAKNTVYLQMNSLKPEDTAVYYCAVLNYAGKYYYWGQGTQVTVSS`
[out] high polyreactivity
